All figures here come from the supplement of paper PMC10201428.

Here the recorded relative integration efficiency (log2) is given for each entry.
System: VchCAST RNA-guided transposition machinery (E. coli BL21(DE3) host, lacZ target)
Experiment: relative integration efficiency (T-RL orientation) vs wild-type transposon end (log2 (normalized fold change)); transposon end mutated: right end (5 bp flank + 75 bp right end); higher = more efficient transposition
API doc: respond with a numeric literal and nothing else, no unit.

Below, each entry is followed by its recorded relative integration efficiency (log2) result.
ACATTTGTTCATACAACCATAAAATGATAATTACCACCCATACATTGATAATTATCACACCCATTTAACTATAACGCTCTGATCATAGTCAGACCAACATTGCTACGACCCGTATTCGCACCGACAC    -3.31
ACATTTGTTGATACAACCATAAGTTGATATTTTCAACCATAAGTTGATATTTTTCACACCCATAAATTGATAATTACTCTGATCATAGTCAGACCAACATTGCTACGACCCGTATTCGCACCGACAC    0.0466
ACATTTGTTGATACAACCCTAAAATGATAATTACACCCATAAATGGATAATTATCACCCCCAATTTAACTATAACGCTCTGATCATAGTCAGACCAACATTGCTACGACCCGTATTCGCACCGACAC    -3.24
ACATTTGTTGATAACCAACGCCCCGTCGCCGGCACAAACGCCCGGTCGCCGGCGACACAAACGCCCGGTCGCGGTAAGAGGATCATAGTCAGACCAACATTGCTACGACCCGTATTCGCACCGACAC    -6.24
ACATTTGTGGATACAACCATAAAACGATAATTACACCCATAAATTCATCATTATCACACCCAATTTAACTATAACGCTCTGATCATAGTCAGACCAACATTGCTACGACCCGTATTCGCACCGACAC    -2.23

sequence ACATTTGTTGATACAACCATAAAATGATATAATCACCCATAAATTGATAATTATCACACCCATAAATTGATATTGCCTCTGATCATAGTCAGACCAACATTGCTACGACCCGTATTCGCACCGACAC , relative integration efficiency (log2) observed: -0.575

The sequence listed as ACATTTGTTGATACAACCATAAAATGATAATTACACCCATAAATTGATATTGCTCACAACCATAAGTTGATATTTTCTCTGATCATAGTCAGACCAACATTGCTACGACCCGTATTCGCACCGACAC has a reported relative integration efficiency (log2) of -0.473

Per the records, this sequence ( ACATTTGTTGATACAACCATAATATGATAATTACACCCATAATTTGATAATTATCACACCCATAATTTGATATTGCCTCTGATCATAGTCAGACCAACATTGCTACGACCCGTATTCGCACCGACAC ) has relative integration efficiency (log2) equal to -0.262

So for ACATTTGTTGATACACCCATAAATTGATAATTACACCCATAAATTGATATTGCTCACAACCATAAGTTGATATTTTCTCTGATCATAGTCAGACCAACATTGCTACGACCCGTATTCGCACCGACAC , the logged relative integration efficiency (log2) turned out to be -0.802

GET /value?item= ACATTTGTTGATACAACCATAAAATGATAATTACACCCATAAATTGATAATTATCACACCCATAAATTGATATTGCCTCTGTACCGTTCGTATAATGTATGCTATACCAAGTTATTCGCACCGACAC &field=relative integration efficiency (log2) returns -0.351
